AC50 listing for selected compounds.
- Test system: HTT mRNA
- procedure-details: Splicing RT-qPCR assay, HTT canonical (CJ) and alternative (AJ) junction mRNA
- Type: cell-based
- condition-description: Homo sapiens, increase in AJ mRNA, A673 or K562 cells, 24 hours treatment
measured-property: AC50

• Cc1cn2cc(-c3cc(=O)n4nc(N5CCNC6(CC6)C5)sc4n3)cc(F)c2n1 [Compound 209] = 1000 to 10000 nM
• COc1cc(-c2cc3ncn(C4CCNCC4)c(=O)c3s2)ccn1 [Compound 263] = 1000 to 10000 nM
• Cc1cn2cc(-c3cc(=O)n4nc(N5CCN(C)CC5)sc4n3)cc(F)c2n1 [Compound 159] = 1000 to 10000 nM
• Cc1cn2nc(-c3nc4sc(N5CCN(C)CC5)nc4c(=O)[nH]3)cc2c(C)n1 [Compound 268] = > 10000 nM
• Cc1cn2cc(-n3cnc4nc(N5CCN(C)CC5)sc4c3=O)cc(F)c2n1 [Compound 228] = 1000 to 10000 nM
• Cc1cn2cc(-c3cc4ncn(C5CCNCC5)c(=O)c4s3)ncc2n1 [Compound 264] = 1000 to 10000 nM
• Cc1cn2cc(-n3cnc4nc(N5CCNCC5)sc4c3=O)cc(F)c2n1 [Compound 226] = 100 to 1000 nM
• Cc1cn2nc(-c3cc4ncn(C5CCN(C)CC5)c(=O)c4s3)cc(C)c2n1 [Compound 239] = 1000 to 10000 nM
